Where do the numbers come from? From ChEMBL document CHEMBL1137474.

test system: A2780; experiment: Cytotoxicity against human A2780 cells by sulforhodamine B assay; format: functional, cell-based
Quantity: pIC50
One number for each entry, as −log10 of the molar value.

Give one value of pIC50 per listed compound.
1. COc1cc2c(cc1OCCCCCOc1ccc(OCCCCCOc3cc4c(cc3OC)C(=O)N3CCC[C@H]3C=N4)c3c1C(=O)c1ccccc1C3=O)N=C[C@@H]1CCCN1C2=O
2. COc1cccc2c1C(=O)c1c(O)c3c(c(O)c1C2=O)C[C@@](O)(C(=O)CO)C[C@@H]3O[C@H]1C[C@H](N)[C@H](O)[C@H](C)O1
3. COc1cc2c(cc1OCCCCOc1ccc(OCCCCOc3cc4c(cc3OC)C(=O)N3CCC[C@H]3C=N4)c3c1C(=O)c1ccccc1C3=O)N=C[C@@H]1CCCN1C2=O

[6.30, 6.30, 5.00]
